Measured Target: T1, Acinetobacter baumannii ApeQ (β-ketoacyl-ACP reductase of the aryl polyene biosynthesis gene cluster) (Acinetobacter baumannii (clinical CRAB …))
T1 construct: ApeQ of A. baumannii, amplified from genomic DNA of the clinical carbapenem-resistant strain C1 with primers designed on the A. baumannii ACICU genome; NCBI ACC55845.1; Cloned NdeI/XhoI into pET28a; His-tag removed with thrombin; Residues of the thrombin site may be left at the N-terminus; also called AbApeQ; source: E. coli BL21 (DE3), purified (Chelating Sepharose, thrombin, Q-Sepharose anion …)
Test Method Notes: ITC; 2 mM holo ACP1 titrated into 0.1 mM reductase; 20 mM Tris pH 8, 100 mM NaCl, 2 mM NADPH; 25 °C; MicroCal 200
Condition Description: both partners purified
Property Name: Kd

Asked: Given holo ACP1 (acyl carrier protein 1 of the A. baumannii aryl polyene biosynthesis gene cluster) (natural protein, holo form (phosphopantetheine arm; made by co-expression with holo-ACP synthase AbAcpS); residue not stated) MSNLADELKQMIIDVLALEDITIADIDTEAPLFGEGLGLDSIDALELGLALKKRYNIHLNAESDETKQHFKSIQSLVALVEAQQKS , state its recorded Kd.
Given back: ~80 µM

Data provenance is paper PMC8041823.
